experiment: chemical genetic growth profiling, strain panel (AID 1159580);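 further: tested at 20 µM; growth read once vehicle control cultures reached saturation at 30 °C; 1 = growth at the plate median or of vehicle wells; lower values mean less growth of the strain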; settings: S. cerevisiae deletion strains, growth OD, locus YDL074C, strain BRE1, hits give low values
Among all 5,500 compounds or so, about 2,000 (36%) were called active. Roughly 18% stayed inconclusive and do not appear here. This is one part of the list.
quantity: normalized growth
Please give the numeric answer without any surrounding text.

Query: So what's the measured normalized growth for this one? O=C(O)c1cc2ccccc2[nH]1
Response: 1.01

Query: Repeat for the following compound: Cc1c(O)c(C(=O)CC(C)C)c2oc3c(C(=O)CC(C)C)c(O)c(C)c(O)c3c2c1O
Response: 0.978

Query: Repeat for the following compound: CN1CCC(=C2c3ccccc3Sc3ccccc32)CC1
Response: 0.986

====

assay: chemical genetic growth profiling, strain panel (AID 1159580);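 further: tested at 20 µM; growth read once vehicle control cultures reached saturation at 30 °C; 1 = growth at the plate median or of vehicle wells; lower values mean less growth of the strain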; settings: S. cerevisiae deletion strains, growth OD, locus YNL298W, strain CLA4
Hit rate of the full screen: of about 5,500 compounds, about 2,000 (36%) were called active. Roughly 18% stayed inconclusive and do not appear here. No stated cut-off is given here; in the data, active means normalized growth mostly below about 0.91 (no sharp cut-off); inconclusive means no clear call, values can overlap the other calls; inactive means mostly above about 0.92. The list shows a part of the results.
# output must be one of active, inactive

Query: Field: outcome | Entry: Cc1cc(O)c(C=O)c(O)c1C(=O)O
Response: inactive

Query: Repeat for the following molecule: CCN(CC)CCNC(=O)c1cc(Br)c(N)cc1OC
Response: inactive

Query: Repeat for the following molecule: OCCN1C[C@@H](O)[C@@H](O)C(O)C1CO (stereo partly drawn)
Response: inactive

Query: Repeat for the following molecule: CN1CCC(=C2c3ccccc3CC(=O)c3sccc32)CC1
Response: inactive

Query: Repeat for the following molecule: C[C@]12CC(=O)C3C(CC[C@@H]4C[C@H](O)CC[C@]34C)C1CC[C@]2(O)C(=O)CO (stereo partly drawn)
Response: inactive

Query: Repeat for the following molecule: OCC(O)C(O)C(O)CO (stereo not drawn)
Response: inactive

Query: Repeat for the following molecule: C=C(C)[C@@H]1[C@H]2OC(=O)[C@@H]1[C@]1(O)C[C@H]3O[C@]34C(=O)O[C@H]2[C@]14C
Response: inactive

Query: Repeat for the following molecule: CN1CCCN=C1COC(=O)C(O)(c1ccccc1)C1CCCCC1 (stereo not drawn)
Response: inactive

Query: Repeat for the following molecule: CCC(=O)O[C@H]1[C@H](O[C@@H]2[C@@H](C)[C@H](O[C@H]3C[C@@](C)(OC)[C@@H](O)[C@H](C)O3)[C@@H](C)C(=O)O[C@H](CC)[C@@](C)(O)[C@H](O)[C@@H](C)C(=O)[C@H](C)C[C@@]2(C)O)O[C@H](C)C[C@@H]1N(C)C
Response: inactive

Query: Repeat for the following molecule: C=C1C2CC[C@H]3[C@]4(C)C[C@H](OC5OC(CO)C(OS(=O)(=O)O)C(OS(=O)(=O)O)C5OC(=O)CC(C)C)C[C@@H](C(=O)O)[C@H]4CC[C@]3(C2)[C@H]1O (stereo partly drawn)
Response: inactive

Query: Repeat for the following molecule: CC1(C)C(C=C(Cl)Cl)C1C(=O)OC(C#N)c1cccc(Oc2ccccc2)c1 (stereo not drawn)
Response: inactive

Query: Repeat for the following molecule: CC(=O)N[C@@H](CC(C)C)C(=O)O
Response: inactive

Query: Repeat for the following molecule: COc1ccc2cc([C@H](C)CO)ccc2c1
Response: inactive

Query: Repeat for the following molecule: CC[C@H]1OC(=O)[C@H](C)[C@@H](O[C@H]2C[C@@](C)(OC)[C@@H](O)[C@H](C)O2)[C@H](C)[C@@H](O[C@@H]2O[C@H](C)C[C@H](N(C)C)[C@H]2O)[C@](C)(O)C[C@@H](C)CN(C)[C@H](C)[C@@H](O)[C@]1(C)O
Response: inactive

Query: Repeat for the following molecule: COCCc1ccc(OCC(O)CNC(C)C)cc1 (stereo not drawn)
Response: inactive

Query: Repeat for the following molecule: CNCCc1ccccn1
Response: inactive

Query: Repeat for the following molecule: COc1ccc2cc([C@H](C)C(=O)O)ccc2c1
Response: active

Query: Repeat for the following molecule: Cc1cc(O)c(C)c(O)c1C(=O)O
Response: inactive
